target: NET (Rattus norvegicus, UniProt Q9WTR4); construct: Cortex from rat brain was collected and homogenised; from tissue; host or cells: rat brain cortex; assay: In vitro determination of NET reuptake inhibition ([3H]Nixosetine binding, rat brain cortex); conditions: rat brain cortex, [3H]Nixosetine; read-out: NET Reuptake Inhibition (converted)
Sequence (Q9WTR4 1-597): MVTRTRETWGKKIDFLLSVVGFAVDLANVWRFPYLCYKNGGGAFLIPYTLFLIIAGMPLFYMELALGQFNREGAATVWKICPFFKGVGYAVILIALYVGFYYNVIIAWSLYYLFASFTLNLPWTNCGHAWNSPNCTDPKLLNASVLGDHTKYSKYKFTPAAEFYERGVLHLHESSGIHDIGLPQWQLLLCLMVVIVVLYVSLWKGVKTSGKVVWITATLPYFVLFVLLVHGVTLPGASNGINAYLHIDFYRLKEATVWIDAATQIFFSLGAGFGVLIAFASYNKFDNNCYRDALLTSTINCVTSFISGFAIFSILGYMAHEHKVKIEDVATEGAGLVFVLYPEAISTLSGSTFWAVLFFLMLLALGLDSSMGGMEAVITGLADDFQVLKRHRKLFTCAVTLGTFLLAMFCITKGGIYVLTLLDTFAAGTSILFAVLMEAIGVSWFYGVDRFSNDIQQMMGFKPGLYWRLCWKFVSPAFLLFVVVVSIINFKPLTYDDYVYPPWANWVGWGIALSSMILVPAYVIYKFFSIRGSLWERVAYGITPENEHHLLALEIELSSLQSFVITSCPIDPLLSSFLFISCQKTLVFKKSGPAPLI
Would you mind telling me the reported IC50 of each entry?
Report the value in nM with no unit label.

Q) Give NET (Rattus norvegicus, UniProt Q9WTR4) IC50 for the following compound: CCS(=O)(=O)N1CCN(CC2CC3=C(O2)c2cc(F)ccc2Oc2ccccc23)CC1 (centres unmarked)
A) 398

Q) Give NET (Rattus norvegicus, UniProt Q9WTR4) IC50 for the following compound: CNCC1CC2=C(O1)c1ccc(F)cc1Cc1ccccc12 (centres unmarked)
A) 631

Q) Give NET (Rattus norvegicus, UniProt Q9WTR4) IC50 for the following compound: Cc1ccc(S(=O)(=O)N2CCN(CC3CC4=C(O3)c3cc(F)ccc3Oc3ccccc34)CC2)cc1 (centres unmarked)
A) 1580

###

Would you mind telling me the reported IC50 of each entry?
Biological target: human Dopamine D2L receptor (Homo sapiens, UniProt P14416)
Construct: expressed in transfected cells; host or cells: CHO cells
Sequence (P14416 whole entry): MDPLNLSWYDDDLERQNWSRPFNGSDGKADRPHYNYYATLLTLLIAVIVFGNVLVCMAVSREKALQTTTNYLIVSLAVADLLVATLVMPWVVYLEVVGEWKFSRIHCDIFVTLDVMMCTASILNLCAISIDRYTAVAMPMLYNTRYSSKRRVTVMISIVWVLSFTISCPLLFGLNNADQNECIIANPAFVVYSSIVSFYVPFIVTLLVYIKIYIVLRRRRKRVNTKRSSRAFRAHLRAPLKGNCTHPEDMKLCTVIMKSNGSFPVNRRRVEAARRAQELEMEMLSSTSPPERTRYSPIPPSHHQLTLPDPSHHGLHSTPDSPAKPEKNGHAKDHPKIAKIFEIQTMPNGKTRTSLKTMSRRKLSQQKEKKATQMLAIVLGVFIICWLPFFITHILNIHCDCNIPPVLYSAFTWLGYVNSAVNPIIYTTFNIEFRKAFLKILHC
Experiment: In vitro binding affinity for human D2L receptor ([3H]Spiperone)
Conditions: human D2L receptor-transfected CHO cell membranes, [3H]Spiperone; read-out: h-D2L (converted)
Protocol: Frozen membranes of human Dopamine D2L receptor-transfected CHO cells were thawed, briefly homogenised using an Ultra-Turrax T25 homogeniser and diluted in Tris-HCl assay buffer containing NaCl, CaCl2, MgCl2, KCl (50, 120, 2, 1, and 5 mM respectively, adjusted to pH 7.7 with HCl) to an appropriate protein concentration optimised for specific and non-specific binding. […] Percentage specific bound and competition binding curves were calculated using S-Plus software (Insightful).
Report the value in µM with no unit label.

Q) Consider the compound CNC[C@@H]1CC2=C(O1)c1ccccc1[C@@H](C)c1ccccc12 (racemic) . State its measured IC50.
A) 3.98

Q) Consider the compound `CNC[C@H]1CC2=C(O1)c1cc(F)ccc1Cc1ccccc12` . State its measured IC50.
A) 0.398

Q) Consider the compound Cc1ccc(S(=O)(=O)N2CCN(CC3CC4=C(O3)c3cc(F)ccc3Oc3ccccc34)CC2)cc1 (centres unmarked) . State its measured IC50.
A) 2

Q) Consider the compound O=C(NCc1ccccc1)N1CCN(CC2CC3=C(O2)c2cc(F)ccc2Cc2ccccc23)CC1 (centres unmarked) . State its measured IC50.
A) 0.794
